I'd be grateful if you could share measured switch fluorescence ratio for these entries.
# Tested on: ATP;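 further: ATP exposure 15 min at 22 °C before imaging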
# assay remarks: switch fluorescence ratio, 500 uM ATP over buffer (Cy3 cluster intensity, sum of 5 cycles each) (fold (ratio)); higher = stronger signal-on switching upon ATP binding; sequences stand for … in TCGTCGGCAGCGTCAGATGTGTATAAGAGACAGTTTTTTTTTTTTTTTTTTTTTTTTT…TC
# measurement conditions: aptamer strand: ATP DNA aptamer (quencher-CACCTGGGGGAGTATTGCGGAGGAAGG + anchor), 100 nM annealed; ATP concentration: 500 uM
Give bare numbers.

entry_sequence=CGTATGAAGA experimental_result=1.02
entry_sequence=TGCAGCTGGT experimental_result=0.98
entry_sequence=ATCGATGAGG experimental_result=0.991
entry_sequence=TGATAACTCC experimental_result=1.03
entry_sequence=TTACATGCTA experimental_result=1

Return reported switch fluorescence ratio values for all items listed beneath this line.
1. GAGGCTTGGG
2. AACTAGGGGA
3. GGGATCAAGA
4. GAAAAAAAAG
5. TGTGGGAAAA

Response:
1: 0.99; 2: 1.11; 3: 0.998; 4: 1.07; 5: 1.02

Return reported switch fluorescence ratio values for all items listed beneath this line.
1. TAGCTCGGGC
2. CGTTCAGCGG

Response:
1. 1.03
2. 0.996

* * *

I'd be grateful if you could share measured switch fluorescence ratio for these entries.
# Tested on: ATP;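 further: ATP exposure 15 min at 22 °C before imaging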
# assay remarks: switch fluorescence ratio, 500 uM ATP over buffer (Cy3 cluster intensity, sum of 5 cycles each) (fold (ratio)); higher = stronger signal-on switching upon ATP binding; sequences stand for … in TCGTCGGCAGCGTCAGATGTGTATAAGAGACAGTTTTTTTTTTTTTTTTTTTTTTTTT…TC
# measurement conditions: aptamer strand: ATP DNA aptamer (quencher-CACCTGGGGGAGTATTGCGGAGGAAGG + anchor), 100 nM annealed; ATP concentration: 500 uM
One number for each entry.

Record excerpt, results attached:
entry_sequence=TTGGTGTTGT experimental_result=0.989
entry_sequence=GGGGATTGAT experimental_result=1.02
entry_sequence=AGCTATGGGA experimental_result=1.04
entry_sequence=ACATCTATTC experimental_result=1.01
entry_sequence=ATCGTCGGTA experimental_result=1.03

Return reported switch fluorescence ratio values for all items listed beneath this line.
1. CATCTCCGGT
2. TCGGCGAGGG
3. TTTCGTAGGT
4. ATTGCTTACG
5. TTGGGGAAAT
6. ATTGCATAGG

Response:
1.13
0.977
1.02
1.14
1.31
0.995

Return reported switch fluorescence ratio values for all items listed beneath this line.
1. AACGATCGCT
2. CTGTGAGGCT
3. TGGTAGTGGG
4. TTTAAGGGCG
5. CATCTGATGC

Response:
1.04
1
0.98
0.981
1.08

* * *

# Tested on: ATP;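 further: ATP exposure 15 min at 22 °C before imaging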
# assay remarks: switch fluorescence ratio, 500 uM ATP over buffer (Cy3 cluster intensity, sum of 5 cycles each) (fold (ratio)); higher = stronger signal-on switching upon ATP binding; sequences stand for … in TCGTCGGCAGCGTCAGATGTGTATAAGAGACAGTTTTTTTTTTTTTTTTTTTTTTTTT…TC
# measurement conditions: aptamer strand: ATP DNA aptamer (quencher-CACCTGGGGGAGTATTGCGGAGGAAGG + anchor), 100 nM annealed; ATP concentration: 500 uM
I'd be grateful if you could share measured switch fluorescence ratio for these entries.
Numbers only.

entry_sequence=GGTGGGAGGG assayed_system=ATP experimental_result=1.01
entry_sequence=GAACACAAAA assayed_system=ATP experimental_result=1.05
entry_sequence=GACGTGGTTT assayed_system=ATP experimental_result=0.994
entry_sequence=GTTGATGGAG assayed_system=ATP experimental_result=0.992
entry_sequence=GATAGCTGGG assayed_system=ATP experimental_result=1
entry_sequence=CAAAAGTCGG assayed_system=ATP experimental_result=1.02
entry_sequence=TAGTTGATGT assayed_system=ATP experimental_result=1.03
entry_sequence=ATTGGGGTAT assayed_system=ATP experimental_result=1
entry_sequence=TTTTACGTGA assayed_system=ATP experimental_result=1.06
entry_sequence=ATTTGGACGA assayed_system=ATP experimental_result=1

Return reported switch fluorescence ratio values for all items listed beneath this line.
1. ATGGCTATTC
2. TAAGTTCTAA
3. GACTTCGTGG
4. GAGGCGTACG

Response:
1: 0.979; 2: 0.979; 3: 1.01; 4: 1.04
